Protocol Summary: Safety pharmacology, monkey
Assay type: in vivo
Measurement Conditions: in vivo, other: iv/sc
Reported Metric: MTD

Enquiry: Recorded MTD for CN1CCC(c2ccsc2)(C(C)(C)O)CC1 , please?
Return: 16 to 32 mg/kg

---

Protocol Summary: Safety pharmacology, dog
Type: in vivo
Measurement Conditions: in vivo
Reported Metric: MTD (mg/kg)
Quick reminder: number only, in mg/kg, skip the unit.

Enquiry: Recorded MTD for CN1CCC(c2ccsc2)(C(C)(C)O)CC1 [Compound A] , please?
Return: 20

---

Protocol Summary: Fourteen-day Oral Dose Range Finding Study in Rats
Assay type: in vivo, rat
Measurement Conditions: rat, in vivo
Reported Metric: NOAEL at 14 day (mg/kg)
Quick reminder: number only, in mg/kg, skip the unit.

Enquiry: Recorded NOAEL at 14 day for CN1CCC(c2ccsc2)(C(C)(C)O)CC1 [Compound A] , please?
Return: 100
